Below, each entry is listed alongside its reported pIC50.
test-target: PCSK9 (Homo sapiens)
Sequence (Q8NBP7 153-692): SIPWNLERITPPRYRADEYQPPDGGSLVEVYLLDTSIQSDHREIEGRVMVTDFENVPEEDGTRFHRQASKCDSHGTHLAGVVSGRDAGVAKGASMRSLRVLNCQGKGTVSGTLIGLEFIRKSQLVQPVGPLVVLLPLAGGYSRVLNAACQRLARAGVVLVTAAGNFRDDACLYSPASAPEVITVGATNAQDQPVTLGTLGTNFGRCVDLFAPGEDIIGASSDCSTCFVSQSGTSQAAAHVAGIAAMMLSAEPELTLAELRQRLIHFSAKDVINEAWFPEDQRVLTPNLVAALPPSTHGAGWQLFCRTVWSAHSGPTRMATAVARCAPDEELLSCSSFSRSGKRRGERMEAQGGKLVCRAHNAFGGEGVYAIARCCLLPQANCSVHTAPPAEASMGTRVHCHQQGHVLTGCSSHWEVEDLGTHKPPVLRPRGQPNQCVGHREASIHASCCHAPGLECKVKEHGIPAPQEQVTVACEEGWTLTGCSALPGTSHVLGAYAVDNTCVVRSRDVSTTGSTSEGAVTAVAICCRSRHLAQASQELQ
test-name: PCSK9 Alexa FRET Standard assay (displacement of AlexaFluor647 tagged cyclic peptide Reagent A)
Assay type: binding
condition-summary: 0.5 nM PCSK9, 20 nM AF cyclic peptide Reagent A
pIC50: −log10 of the molar value. Numbered stars: 1 amine (or outer) side, 2 acyl side, 3 side chain; on linkers, the order of the positions; unused ones are H or OH. Bridge positions count the residues as written; N and C are the ends. Square brackets hold non-standard residues; d marks the D form. Peptide text beside a SMILES is read from it. Pyridine(2,6-diCH2) = c1cc(C[*:1])nc(C[*:2])c1; Trp(7-aza) = N[C@@H](Cc1c[nH]c2ncccc12)C(=O)O; mXylylene = c1cc(C[*:1])cc(C[*:2])c1; Ala(cPr) = N[C@@H](CC1CC1)C(=O)O; NMeE = CN[C@@H](CCC(=O)O)C(=O)O; Tle = CC(C)(C)[C@H](N)C(=O)O; Nva = CCC[C@H](N)C(=O)O; Mpa = O=C(O)CCS

{"compound": "CCC[C@@H]1NC(=O)[C@H](Cc2ccc(O)cc2)NC(=O)[C@H](CCC(=O)O)N(C)C(=O)[C@H](CCC)NC(=O)[C@H](Cc2c[nH]c3ncccc23)NC(=O)[C@H]([C@@H](C)O)NC(=O)[C@H](Cc2c[nH]cn2)NC(=O)[C@H](Cc2ccc(O)cc2)NC(=O)[C@H](C(C)(C)C)NC(=O)CCSCc2cccc(c2)CSC[C@@H](C(N)=O)NC(=O)[C@H]([C@@H](C)O)NC1=O [Compound 208] ([Mpa][Tle]YHT[Trp(7-aza)][Nva][NMeE]Y[Nva]TC-NH2; linker 1-12 via mXylylene)", "result": "4.00 to 4.30"}
{"compound": "CCC[C@@H]1NC(=O)[C@H](Cc2c[nH]c3ncccc23)NC(=O)[C@H]([C@@H](C)O)NC(=O)[C@H](Cc2c[nH]cn2)NC(=O)[C@H](Cc2ccc(O)cc2)NC(=O)[C@H](C(C)(C)C)NC(=O)[C@@H](NC(C)=O)CSCc2cccc(c2)CSC[C@@H](C(N)=O)NC(=O)[C@H]([C@@H](C)O)NC(=O)[C@H](CCC)NC(=O)[C@H](Cc2ccc(O)cc2)NC(=O)[C@H](CCC(=O)O)NC1=O [Compound 235] (Ac-C[Tle]YHT[Trp(7-aza)][Nva]EY[Nva]TC-NH2; linker 1-12 via mXylylene)", "result": "4.68 to 6.00"}
{"compound": "CCC[C@@H]1NC(=O)[C@H](Cc2c[nH]c3ncccc23)NC(=O)[C@H]([C@@H](C)O)NC(=O)[C@H](Cc2c[nH]cn2)NC(=O)[C@H](Cc2ccc(O)cc2)NC(=O)[C@H](C(C)(C)C)NC(=O)CCSCc2cccc(c2)CSC[C@@H](C(N)=O)NC(=O)[C@H]([C@@H](C)O)NC(=O)[C@H](CC2CC2)NC(=O)[C@H](Cc2ccc(O)cc2)NC(=O)[C@H](CCC(=O)O)NC1=O [Compound 262] ([Mpa][Tle]YHT[Trp(7-aza)][Nva]EY[Ala(cPr)]TC-NH2; linker 1-12 via mXylylene)", "result": "4.68 to 6.00"}

input: // pIC50 lookup, key: CCC[C@H](NC(=O)[C@@H](NC(=O)[C@@H](NC(=O)[C@H](Cc1ccc(O)cc1)NC(=O)[C@@H]1CSCc2cccc(n2)CSC[C@H](NC(=O)[C@@H](NC(=O)[C@H](CCC)NC(=O)[C@H](CCCCN)NC(C)=O)[C@@H](C)CC)C(=O)N[C@@H](Cc2ccc(O)cc2)C(=O)NCC(=O)NCC(=O)N[C@@H](CC(=O)O)C(=O)N1)[C@@H](C)CC)[C@@H](C)CC)C(N)=O [Compound 055] (Ac-K[Nva]ICYGGDCYII[Nva]-NH2; linker 4-9 via Pyridine(2,6-diCH2))
output: 7.00 to 9.00
